The molecules listed here are annotated with their CC50.
# assayMethodText: Cytotoxicity in mock-infected MT-4 cells (MTT)
# Format: cell-based
# conditionParameters: human, 50% cytotoxic concentration
# Experimental: A rapid and automated assay procedure was used for the in vitro evaluation of anti-HIV agents. […] The viabitlity of both HIV- and mock-infected cells was assessed spectrophotometrically via in situ reduction of 3-(4,5-dimethylthiazol-2-yl)-2,5-diphenyltetrazolium bromide (MTT). […] The percent protection achieved by the compound in HIV-infected cells was calculated by the following formula: […]
readoutLabel: CC50 (µM)

>>> measvalue("Cc1ccc(-c2c(C(CCC(F)(F)F)C(=O)O)c(C)nc3sc4c(c23)CCCC4)cc1 (centres unmarked) [Cpd 158]")
58.5
>>> measvalue("Cc1nc2sc3c(c2c(-c2ccc4c5c(ccnc25)CCO4)c1C(OC(C)(C)C)C(=O)O)CCCC3 (centres unmarked) [Cpd 190]")
129
>>> measvalue("CCCC(C(=O)O)c1c(C)nc2sc3c(c2c1-c1ccc(OC(F)(F)F)cc1)CCCC3 (centres unmarked) [Cpd 151]")
48
>>> measvalue("Cc1ccc(-c2c(C(CC3CC3)C(=O)O)c(C)nc3sc4c(c23)CCCC4)cc1 (centres unmarked) [Cpd 165]")
89
>>> measvalue("Cc1ccc(-c2c(C(OC(C)(C)C)C(=O)O)c(C)nc3sc4c(c23)CCCC4)cn1 (centres unmarked) [Cpd 184]")
237
>>> measvalue("CCCC(C(=O)O)c1c(C)nc2sc3c(c2c1-c1ccc(C)cc1O)CCCC3.N (centres unmarked) [Cpd 161, ammonium salt]")
157
>>> measvalue("CCCC(C(=O)O)c1c(C)nc2sc3c(c2c1-c1ccc(C)cc1OC)CCCC3 (centres unmarked) [Cpd 160]")
74
>>> measvalue("CCCC(C(=O)O)c1c(C)nc2sc3c(c2c1-c1ccc(Cl)c(Cl)c1)CCCC3 (centres unmarked) [Cpd 139]")
55.1
>>> measvalue("CCCC(C(=O)O)c1c(C)nc2sc3c(c2c1-c1ccc2c(c1)OCO2)CCCC3 (centres unmarked) [Cpd 146]")
124
>>> measvalue("CCC[C@H](C(=O)O)c1c(C)nc2sc3c(c2c1-c1ccc(C)cc1)CCCC3 [Cpd 114]")
126
>>> measvalue("CCCC(C(=O)O)c1c(C)nc2sc3c(c2c1-c1ccc(OC)cc1)CCC3 (centres unmarked) [Cpd 131]")
127
>>> measvalue("CCCC(C(=O)O)c1c(C)nc2sc3c(c2c1-c1ccc(C)cc1)CCN(Cc1ccccc1)C3 (centres unmarked) [Cpd 163]")
23
>>> measvalue("CCCC(C(=O)O)c1c(C)nc2sc3c(c2c1-c1ccc(C)cc1)CCC3C (centres unmarked) [Cpd 128]")
121
>>> measvalue("Cc1ccc(-c2c(C(CCc3ccccc3)C(=O)O)c(C)nc3sc4c(c23)CCCC4)cc1 (centres unmarked) [Cpd 155]")
22
>>> measvalue("CCCC(C(=O)O)c1c(C)nc2scc(C)c2c1-c1ccc(C)cc1 (centres unmarked) [Cpd 118]")
50.2

Values from patent US8785638B2
